# System: U251 CNS
Outcome codes: active, inactive

1) O=C(COc1ccc(/C=C2\Oc3ccccc3C2=O)cc1)Nc1nc2ccccc2s1 | inactive
2) OCCCCC#Cc1ccccc1C#Cc1cccc(C(F)(F)F)c1 | inactive
3) CCC(c1ccccc1)c1noc(CCN(CC)CC)n1 (centres undefined) | inactive
4) C=C(CN1CCc2[nH]c3ccc(F)cc3c2C1)c1ccc(C(=O)Nc2ccccc2N)cc1 | inactive
5) COc1ccc(Nc2cnc3cc(N)cc(N)c3n2)cc1 | inactive
6) COCCN(Cc1ccc(F)cc1)c1ccc(CO)c(Cl)c1 | inactive
7) CC(=O)Oc1c(C(=O)[O-])cc(C(C)C)cc1C(C)C.CC(=O)Oc1c(C(=O)[O-])cc(C(C)C)cc1C(C)C.CC(=O)Oc1c(C(=O)[O-])cc(C(C)C)cc1C(C)C.CC(=O)Oc1c(C(=O)[O-])cc(C(C)C)cc1C(C)C.[Cu+2].[Cu+2] | inactive
8) CCN(CC)c1ccc2nc3ccc(=[N+](CC)CC)cc-3oc2c1 | active
9) Nc1nccc(-c2c(-c3ccc(F)cc3)nn3cc(C(F)(F)F)ccc23)n1 | inactive
10) O=C(c1cccs1)c1c(C(F)(F)F)n([O-])c2cc(Cl)c(Cl)cc2[n+]1=O | active
11) OCC1CC[N-]CC1.OCC1CC[N-]CC1.[Cl][Pt+2]([Cl])([Cl])[Cl] | inactive
12) CC(=O)[CH-]C(=O)c1ccccc1.[C-]#[O+].[C-]#[O+].[Ir] | inactive
13) Cc1cc(Br)c(NC(=O)c2c(-c3c(Cl)cccc3Cl)noc2C)c(Br)c1 | inactive
14) COc1ccc(/C=C2\CCC/C(=C\c3ccc(OC)c(OC)c3)C2=O)cc1OC | inactive
15) CCCCCCCCCCCCCCNC(=O)Nc1ccc(Cl)c(Cl)c1 | inactive
16) [O]=[V]([OH])([OH])[OH] | inactive
17) ClCCOCCn1cnc2c(Cl)nc(Cl)nc21 | inactive
18) Fc1ccc(NC(c2ccc(F)cc2)C2CCN(CCCCc3ccccc3)CC2)cc1 (centres undefined) | inactive
19) COc1ccc(-c2nc3ccc(Cc4ccc5nc(-c6ccc(OC)cc6)[nH]c5c4)cc3[nH]2)cc1 | active
